Biological target: T1, B7H3 on cells (B7H3 on HEK293 cells; B7H3 expressed from plasmid on HEK-293T and QT6 cells) (human, UniProt Q5ZPR3 29-534)
T1 construct: whole, on cells; also called HEK293 B7H3 proteins; human B7H3
T1 sequence (looked up): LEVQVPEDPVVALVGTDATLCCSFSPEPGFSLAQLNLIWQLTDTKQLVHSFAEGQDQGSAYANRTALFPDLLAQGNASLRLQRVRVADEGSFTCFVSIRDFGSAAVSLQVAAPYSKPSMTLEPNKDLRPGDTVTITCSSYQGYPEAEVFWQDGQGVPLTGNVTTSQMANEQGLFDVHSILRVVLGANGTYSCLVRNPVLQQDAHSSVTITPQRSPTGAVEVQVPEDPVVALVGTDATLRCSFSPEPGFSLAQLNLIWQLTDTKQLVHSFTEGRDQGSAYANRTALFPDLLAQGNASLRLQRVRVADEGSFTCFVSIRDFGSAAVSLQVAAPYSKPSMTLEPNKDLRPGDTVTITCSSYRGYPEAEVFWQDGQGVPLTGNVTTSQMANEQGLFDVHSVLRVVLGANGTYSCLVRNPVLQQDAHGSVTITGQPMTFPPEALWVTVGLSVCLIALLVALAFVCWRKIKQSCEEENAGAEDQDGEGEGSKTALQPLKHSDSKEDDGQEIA
Experiment: flow cytometry on HEK293 cells
Result type: EC50 (µg/mL)
Note: unit µg/mL is implicit; provide only the numeric part.

Query: Any idea what its EC50 is? The binder is humanized 2B8 (antibody, V domains shown, also called hz2B8; h2B8) VH: QVQLVQSGAEVKKPGASVKVSCKVSGYTFTDGAMHWVRQAPGQGLEWIGIINTNSGNTNYNQKFQGRVTMTRDTSISTAYMELSRLRSEDTAVYYCARGVFYYGYGAWFAYWGQGTLVTVSS VL: DIQLTQSPSFLSASVGDRVTINCRASKTISNYLAWYQQKPGKAPKLLIYSGSTLQSGVPSRFSGSGSGTDFTLTISSLQPEDFATYYCQQHHEYPLTFGGGTKVEIKR
Reply: 0.0779
